assay_system: UniProt:P00489
Sequence (P00489 whole entry): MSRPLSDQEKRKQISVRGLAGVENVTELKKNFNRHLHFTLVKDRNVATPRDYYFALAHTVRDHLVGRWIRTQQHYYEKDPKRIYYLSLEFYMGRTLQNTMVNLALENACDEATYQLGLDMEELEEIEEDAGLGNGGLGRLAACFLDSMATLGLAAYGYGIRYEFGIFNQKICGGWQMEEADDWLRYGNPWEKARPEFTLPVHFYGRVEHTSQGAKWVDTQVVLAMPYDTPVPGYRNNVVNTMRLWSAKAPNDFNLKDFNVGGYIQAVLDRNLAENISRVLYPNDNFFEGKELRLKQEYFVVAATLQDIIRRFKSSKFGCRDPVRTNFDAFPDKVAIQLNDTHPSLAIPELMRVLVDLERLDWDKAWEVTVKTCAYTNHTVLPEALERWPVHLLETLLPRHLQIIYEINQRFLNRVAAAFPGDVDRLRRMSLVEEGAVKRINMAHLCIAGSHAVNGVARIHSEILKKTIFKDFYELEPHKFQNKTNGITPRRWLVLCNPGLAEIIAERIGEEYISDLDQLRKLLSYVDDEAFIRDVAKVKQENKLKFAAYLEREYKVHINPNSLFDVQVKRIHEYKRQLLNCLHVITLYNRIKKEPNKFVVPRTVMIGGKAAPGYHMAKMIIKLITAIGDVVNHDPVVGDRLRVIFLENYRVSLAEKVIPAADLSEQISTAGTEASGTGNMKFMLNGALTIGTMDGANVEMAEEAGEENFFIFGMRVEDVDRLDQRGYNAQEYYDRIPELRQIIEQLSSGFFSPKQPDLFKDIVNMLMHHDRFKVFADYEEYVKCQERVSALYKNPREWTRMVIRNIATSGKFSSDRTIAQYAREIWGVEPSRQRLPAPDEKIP
Give measured IC50 for each item. Keep answers brief.
Answers are plain numbers, in µM.

CC(=O)OCc1cn(CCCCCCn2cc(COC(=O)[C@]34CCC(C)(C)C[C@H]3C3=CC[C@@H]5[C@@]6(C)CC[C@H](O)C(C)(C)[C@@H]6CC[C@@]5(C)[C@]3(C)CC4)nn2)nn1 : 20.7
CC1(C)CC[C@]2(C(=O)OCc3ccccc3)CC[C@]3(C)C(=CC[C@@H]4[C@@]5(C)CC[C@H](OC(=O)c6ccc([N+](=O)[O-])cc6)C(C)(C)[C@@H]5CC[C@]43C)[C@@H]2C1 : 16.1
Cn1cc2c(n1)C(C)(C)[C@@H]1CC[C@]3(C)[C@H](CC=C4[C@@H]5CC(C)(C)CC[C@]5(C(=O)OCc5ccccc5)CC[C@]43C)[C@@]1(C)C2 : 188
CCCCCCCCCCCC(=O)OCc1cn(CC(=O)O[C@H]2CC[C@]3(C)[C@H]4CC=C5[C@@H]6CC(C)(C)CC[C@]6(C(=O)OCc6ccccc6)CC[C@@]5(C)[C@]4(C)CC[C@H]3C2(C)C)nn1 : 7.76

Please turn your attention to the following entry.
Exam item: // fetch IC50 for CC1(C)CC[C@]2(C(=O)O)CC[C@]3(C)C(=CC[C@@H]4[C@@]5(C)CC[C@H](OC(=O)Cn6cc(COC(=O)Cc7ccccc7)nn6)C(C)(C)[C@@H]5CC[C@]43C)[C@@H]2C1 ; system: UniProt:P00489
Marked response: 30.9

* * *

assay_system: Glycogen phosphorylase, muscle form (Oryctolagus cuniculus, UniProt P00489)
Sequence (P00489 whole entry): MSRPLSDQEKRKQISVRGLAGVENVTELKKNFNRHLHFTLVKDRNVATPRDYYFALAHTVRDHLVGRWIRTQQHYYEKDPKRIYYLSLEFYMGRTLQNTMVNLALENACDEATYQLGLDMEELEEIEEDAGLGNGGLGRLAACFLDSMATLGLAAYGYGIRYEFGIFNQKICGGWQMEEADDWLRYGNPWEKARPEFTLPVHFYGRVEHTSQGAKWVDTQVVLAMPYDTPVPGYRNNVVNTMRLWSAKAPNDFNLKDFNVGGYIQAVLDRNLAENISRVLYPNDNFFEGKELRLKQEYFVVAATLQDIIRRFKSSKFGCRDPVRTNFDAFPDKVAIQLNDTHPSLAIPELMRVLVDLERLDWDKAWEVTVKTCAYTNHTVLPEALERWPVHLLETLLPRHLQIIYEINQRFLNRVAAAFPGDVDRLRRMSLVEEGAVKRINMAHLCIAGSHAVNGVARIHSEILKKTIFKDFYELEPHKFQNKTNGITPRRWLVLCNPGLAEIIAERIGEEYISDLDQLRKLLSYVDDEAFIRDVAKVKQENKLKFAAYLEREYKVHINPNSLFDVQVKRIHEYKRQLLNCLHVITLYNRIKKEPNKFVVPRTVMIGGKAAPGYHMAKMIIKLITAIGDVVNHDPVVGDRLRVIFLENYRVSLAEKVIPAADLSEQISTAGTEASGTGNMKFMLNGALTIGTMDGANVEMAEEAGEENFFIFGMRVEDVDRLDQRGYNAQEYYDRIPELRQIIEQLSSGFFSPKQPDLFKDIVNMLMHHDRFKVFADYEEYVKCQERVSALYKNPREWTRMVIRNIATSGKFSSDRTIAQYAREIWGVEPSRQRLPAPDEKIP
readout_kind: pIC50
Numbers only, as −log10 of the molar value.

C[C@H]1[C@H](C)CC[C@]2(C(=O)OCCNC3CCCCC3)CC[C@]3(C)C(=CC[C@@H]4[C@@]5(C)CC[C@H](O)C(C)(C)[C@@H]5CC[C@]43C)[C@H]12 : 4.59
CC1(C)CC[C@]2(C(=O)OCc3ccccc3)CC[C@]3(C)C(=CC[C@@H]4[C@@]5(C)C[C@H](O)[C@H](O)C(C)(C)[C@@H]5CC[C@]43C)[C@@H]2C1 [BENZYL AUGUSTATE] : 4.66
COC(=O)[C@@]1(C)[C@@H]2CC[C@]3(C)[C@H](CC=C4[C@@H]5[C@@H](C)[C@H](C)CC[C@]5(C(=O)O)CC[C@]43C)[C@@]2(C)C[C@@H](OC(C)=O)[C@@H]1OC(C)=O : 4.48
CC(=O)O[C@@H]1C[C@]2(C)[C@H]3CC=C4[C@@H]5CC(C)(C)CC[C@]5(C(=O)O)CC[C@@]4(C)[C@]3(C)CC[C@H]2C(C)(C)[C@H]1OC(C)=O : 4.88

Please turn your attention to the following entry.
Exam item: Indicate its recorded pIC50; the compound in question is CC1(C)CC[C@]2(C(=O)O)CC[C@]3(C)C(=CC[C@@H]4[C@@]5(C)C[C@@H](O)[C@H](O)[C@@](C)(CO)[C@@H]5CC[C@]43C)[C@@H]2C1
Marked response: 3.99

* * *

assay_system: Glycogen phosphorylase, muscle form (Oryctolagus cuniculus, UniProt P00489)
Sequence (P00489 whole entry): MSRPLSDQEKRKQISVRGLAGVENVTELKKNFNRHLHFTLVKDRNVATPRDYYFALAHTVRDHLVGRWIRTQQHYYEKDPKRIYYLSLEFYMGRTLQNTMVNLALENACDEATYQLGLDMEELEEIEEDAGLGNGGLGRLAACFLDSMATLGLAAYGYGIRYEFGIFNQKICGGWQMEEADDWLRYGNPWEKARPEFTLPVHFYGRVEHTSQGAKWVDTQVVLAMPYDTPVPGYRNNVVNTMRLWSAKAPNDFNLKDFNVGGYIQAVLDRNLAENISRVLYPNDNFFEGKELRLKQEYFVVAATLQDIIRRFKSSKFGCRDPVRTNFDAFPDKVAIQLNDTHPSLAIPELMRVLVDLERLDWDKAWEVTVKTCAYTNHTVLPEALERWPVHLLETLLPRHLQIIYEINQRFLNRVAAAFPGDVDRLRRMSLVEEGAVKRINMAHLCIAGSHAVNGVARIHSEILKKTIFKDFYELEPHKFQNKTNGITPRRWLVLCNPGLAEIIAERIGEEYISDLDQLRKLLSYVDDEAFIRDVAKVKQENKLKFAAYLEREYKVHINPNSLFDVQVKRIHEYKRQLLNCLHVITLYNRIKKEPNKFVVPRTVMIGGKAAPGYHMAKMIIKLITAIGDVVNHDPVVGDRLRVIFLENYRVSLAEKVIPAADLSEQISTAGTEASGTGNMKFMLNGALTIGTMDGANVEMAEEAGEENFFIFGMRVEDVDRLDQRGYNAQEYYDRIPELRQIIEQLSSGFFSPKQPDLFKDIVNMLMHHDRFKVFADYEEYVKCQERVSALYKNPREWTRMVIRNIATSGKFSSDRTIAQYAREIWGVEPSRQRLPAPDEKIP
Give measured log10 IC50 for each item. Keep answers brief.
Scale type: logarithmic (base 10). Underlying IC50 unit: µM.

Example results:
CC1(C)CC[C@]2(C(=O)OCc3ccccc3)CC[C@]3(C)C(=CC[C@@H]4[C@@]5(C)CC[C@H](OC(=O)Cn6cc(COC(=O)Cc7ccccc7)nn6)C(C)(C)[C@@H]5CC[C@]43C)[C@@H]2C1 : 1.44
CC1(C)CC[C@]2(C(=O)OCc3ccccc3)CC[C@]3(C)C(=CC[C@@H]4[C@@]5(C)Cc6cnn(-c7ccc(Cl)cc7)c6C(C)(C)[C@@H]5CC[C@]43C)[C@@H]2C1 : 1.05
CCCC(=O)O[C@@H]1C[C@]2(C)[C@H]3CC=C4[C@@H]5[C@@H](C)[C@H](C)CC[C@]5(C(=O)O)CC[C@@]4(C)[C@]3(C)CC[C@H]2C(C)(C)[C@H]1OC(=O)CCC : 1.90
CC1(C)CC[C@]2(C(=O)O)CC[C@]3(C)C(=CC[C@@H]4[C@@]5(C)C/C(=N\O)[C@H](O)C(C)(C)[C@@H]5CC[C@]43C)[C@@H]2C1 : 1.45
C[C@H]1[C@H](C)CC[C@]2(C(=O)OCc3ccccc3)CC[C@]3(C)C(=CC[C@@H]4[C@@]5(C)C[C@H](O)[C@H](O)C(C)(C)[C@@H]5CC[C@]43C)[C@H]12 : 2.03
COC(=O)[C@]12CC[C@@H](C)[C@H](C)[C@H]1C1=CC[C@@H]3[C@@]4(C)C[C@@H](O)[C@H](O)C(C)(C)[C@@H]4CC[C@@]3(C)[C@]1(C)CC2 [COROSOLIC ACID METHYL ESTER] : 1.53
CCCC(=O)O[C@@H]1C[C@]2(C)[C@H]3CC=C4[C@@H]5[C@@H](C)[C@H](C)CC[C@]5(C(=O)O)CC[C@@]4(C)[C@]3(C)CC[C@H]2C(C)(C)[C@H]1O : 1.89
CC1(C)CC[C@]2(C(=O)O)CC[C@]3(C)C(=CC[C@@H]4[C@@]5(C)Cc6cnn(-c7cc(F)cc(F)c7)c6C(C)(C)[C@@H]5CC[C@]43C)[C@@H]2C1 : 1.67

Fill in log10 IC50 for each of the 2 molecules listed.
1. COC(=O)[C@H](Cc1ccc(OCc2cn(CC(=O)O[C@H]3CC[C@]4(C)[C@H]5CC=C6[C@@H]7CC(C)(C)CC[C@]7(C(=O)OCc7ccccc7)CC[C@@]6(C)[C@]5(C)CC[C@H]4C3(C)C)nn2)cc1)NC(=O)OC(C)(C)C
2. CC1(C)CC[C@]2(C(=O)OCc3ccccc3)CC[C@]3(C)C(=CC[C@@H]4[C@@]5(C)Cc6cn(Cc7ccccc7)nc6C(C)(C)[C@@H]5CC[C@]43C)[C@@H]2C1

Marked response:
1. 1.24
2. 2.10

Hey, just so you know, these numbers are from ChEMBL document CHEMBL1795338.
